Attribution: patent US20250270304A1

Molecular target: T1, Inhibin A (Homo sapiens (Human), UniProt P05111 233-366; P08476 311-426)
T1 sequence 1: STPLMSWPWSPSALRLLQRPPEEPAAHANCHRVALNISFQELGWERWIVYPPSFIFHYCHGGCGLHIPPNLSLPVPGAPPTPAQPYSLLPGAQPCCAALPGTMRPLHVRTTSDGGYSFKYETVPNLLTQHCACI
T1 sequence 2: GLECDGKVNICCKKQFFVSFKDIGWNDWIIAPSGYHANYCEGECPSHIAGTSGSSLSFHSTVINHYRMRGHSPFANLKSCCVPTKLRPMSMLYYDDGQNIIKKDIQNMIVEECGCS
Assay: ELISA, coated antigen, OD450
METRIC: fold-change of OD 450 over negative control (BSA)

BINDER	RESULT
AB433 (antibody, IgG1, V domains shown) VH: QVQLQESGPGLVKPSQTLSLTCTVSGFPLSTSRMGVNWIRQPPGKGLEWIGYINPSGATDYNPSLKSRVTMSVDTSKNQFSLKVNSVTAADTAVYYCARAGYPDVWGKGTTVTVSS VL: EIVMTQSPATLSLSPGERATLSCRASQSVRTSLAWYQQKPGQAPRLLIYDTSIRAAGIPARFSGSGSGTDFTLTISSLEPEDFAVYYCQQYGNWHFGGGTKVEIK	0.72 fold

We next turn to a different binder, shown below.
Quick note, fold-change of OD 450 over negative control (BSA) for AB431 (antibody, IgG1, V domains shown, also called mAb 431) VH: EVQLVESGGGLVQPGGSLRLSCAASGFTSSNHWMSWVRQAPGKGLELVASIGPKGLGTYYPDSVKGRFTISRDNAKNSLYLQMNSLRAEDTAVYYCARDVRGWRALYYYYGMDVWGQGTTVTVSS VL: DIVMTQSPLSLPVTPGEPASISCRSSQSLLHVTGYNYLHWYLQKPGQSPQLLIYGASSRAAGVPDRFSGSGSGTDFTLKISRVEAEDVGVYYCMQSTQWPHTFGGGTKVEIK landed at 1.13 fold
